target: T1, mouse α4β7 integrin on TK1 cells (mouse, UniProt Q00651 41-1039; P26011 20-806); assay: TK1 cell adhesion to MAdCAM-1
T1 construct: whole, on cells; also called α4β7 cell (Mu); Cell Adhesion α4β7 Mouse
T1 sequence (Q00651 41-1039, chain 1 of 2): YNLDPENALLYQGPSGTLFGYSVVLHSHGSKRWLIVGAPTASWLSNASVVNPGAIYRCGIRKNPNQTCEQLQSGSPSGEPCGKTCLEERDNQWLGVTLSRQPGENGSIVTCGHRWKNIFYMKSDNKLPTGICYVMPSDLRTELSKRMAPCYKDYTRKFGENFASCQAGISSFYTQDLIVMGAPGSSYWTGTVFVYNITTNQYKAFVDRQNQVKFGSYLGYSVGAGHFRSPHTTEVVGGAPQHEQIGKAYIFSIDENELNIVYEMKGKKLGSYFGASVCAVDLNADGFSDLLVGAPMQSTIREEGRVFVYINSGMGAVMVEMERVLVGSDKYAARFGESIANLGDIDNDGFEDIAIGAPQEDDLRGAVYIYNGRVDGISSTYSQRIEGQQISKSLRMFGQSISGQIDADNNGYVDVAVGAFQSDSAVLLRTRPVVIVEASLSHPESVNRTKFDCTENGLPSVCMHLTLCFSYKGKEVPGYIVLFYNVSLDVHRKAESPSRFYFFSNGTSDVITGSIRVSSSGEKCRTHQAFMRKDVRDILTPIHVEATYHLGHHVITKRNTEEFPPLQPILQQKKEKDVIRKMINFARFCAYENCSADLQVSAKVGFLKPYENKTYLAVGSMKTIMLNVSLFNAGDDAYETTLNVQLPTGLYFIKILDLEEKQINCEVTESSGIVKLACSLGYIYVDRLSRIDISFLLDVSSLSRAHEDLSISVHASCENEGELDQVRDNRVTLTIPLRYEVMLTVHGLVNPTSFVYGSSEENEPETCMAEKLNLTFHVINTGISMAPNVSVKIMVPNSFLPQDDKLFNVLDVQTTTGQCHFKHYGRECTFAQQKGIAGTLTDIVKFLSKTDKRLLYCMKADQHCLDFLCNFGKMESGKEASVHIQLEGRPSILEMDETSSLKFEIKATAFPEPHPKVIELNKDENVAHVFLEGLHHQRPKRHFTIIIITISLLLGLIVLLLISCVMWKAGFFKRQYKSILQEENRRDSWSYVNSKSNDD
T1 sequence (P26011 20-806, chain 2 of 2): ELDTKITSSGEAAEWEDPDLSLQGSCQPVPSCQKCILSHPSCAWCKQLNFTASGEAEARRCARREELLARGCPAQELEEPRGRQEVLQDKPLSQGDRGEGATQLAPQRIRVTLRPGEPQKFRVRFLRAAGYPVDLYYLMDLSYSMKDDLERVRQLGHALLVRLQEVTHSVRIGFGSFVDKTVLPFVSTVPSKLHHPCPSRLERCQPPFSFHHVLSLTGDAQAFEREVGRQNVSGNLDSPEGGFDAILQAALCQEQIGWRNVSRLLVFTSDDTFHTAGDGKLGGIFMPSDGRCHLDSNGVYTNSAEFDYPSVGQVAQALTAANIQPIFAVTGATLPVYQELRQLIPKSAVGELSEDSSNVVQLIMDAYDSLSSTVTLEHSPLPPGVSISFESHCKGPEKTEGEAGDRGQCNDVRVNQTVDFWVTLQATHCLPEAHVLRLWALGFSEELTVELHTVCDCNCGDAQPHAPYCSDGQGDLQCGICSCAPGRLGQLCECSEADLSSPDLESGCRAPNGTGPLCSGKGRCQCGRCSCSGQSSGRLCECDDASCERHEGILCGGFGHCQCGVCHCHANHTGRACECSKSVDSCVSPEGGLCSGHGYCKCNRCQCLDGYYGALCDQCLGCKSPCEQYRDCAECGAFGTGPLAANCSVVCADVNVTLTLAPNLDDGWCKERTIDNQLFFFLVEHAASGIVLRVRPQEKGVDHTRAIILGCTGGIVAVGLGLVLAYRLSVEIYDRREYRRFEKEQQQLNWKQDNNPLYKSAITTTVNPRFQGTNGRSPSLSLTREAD
Bridge positions count the residues as written; N and C are the ends. Square brackets hold non-standard residues; d marks the D form. NMeR = CN[C@@H](CCCNC(=N)N)C(=O)O; β3hE = N[C@@H](CCC(=O)O)CC(=O)O; NMeK = CN[C@@H](CCCCN)C(=O)O; Pen = CC(C)(S)[C@H](N)C(=O)O
QUANTITY MEASURED: IC50 (nM)

BINDER	RESULT UNIT	IC50
Ac-[Pen][NMeR]SDTL[Pen]WE[NMeK]-NH2 (disulfide 1-7; not fully specified; printed as [Ac-Pen-(N-Me-Arg)-Ser-Asp-Thr-Leu-Pen-Trp-Glu-(N-Me-Lys)-NH2]2-DIG; also: homodimer: two identical subunits joined by DIG linker at the Lys10 side chains, each subunit has its own Pen1-Pen7 disulfide, also called peptide 215) [SEQ ID NO: 215]	nM	0.9
Ac-[Pen][NMeR]SDTL[Pen]WE[dK]-NH2 (disulfide 1-7; not fully specified (residue 10); printed as (Ac Pen N-Me-R S D T L Pen W E k NH2)2 DIG, disulfide Pen-Pen; also: dimer, two subunits joined by DIG linker, also called peptide 217) [SEQ ID NO: 217]	nM	1.2
Ac-[Pen][NMeR]SDTL[Pen]W[β3hE][dK]-NH2 (disulfide 1-7; not fully specified (residue 10); printed as (Ac Pen N-Me-R S D T L Pen W b-h-E k NH2)2 DIG, disulfide Pen-Pen; also: dimer, two subunits joined by DIG linker, also called peptide 213; Peptide XX) [SEQ ID NO: 213]	nM	4.2

1 = XRSDTLXWK ((Ac Pen N-Me-R S D T L Pen W k NH2)2 DIG; disulfide Pen-Pen, also called peptide 209) [SEQ ID NO: 209]
2 = Ac-[Pen][NMeR]SDTL[Pen]W[dE][dK]-NH2 (disulfide 1-7; also: dimer, two subunits joined by DIG linker, also called peptide 211) [SEQ ID NO: 211]
Ask: Of 1 and 2 , which one carries the higher reported IC50? Reply with the label of the item you choose.
Result: 1
